- assay.overview: HepG2 liver cancer cell viability effects, profiling panel, resazurin fluorescence, 24 h, PK04 Diversity Set (AID 1172); further: test concentration not given here
- condition.summary: higher = more signal
measured.endpoint: z-score
Answer with a bare number; do not write a unit.

Recorded z-score, per entry:
chemical.string	z-score
COC(=O)c1c(CC[C@@H](CO)NC(=O)N2CCC[C@H]2Cn2cc(Cc3ccccc3)nn2)oc(C(C)=O)c1C(=O)OC	0.448
COCCOC(=O)N1C(=O)[C@@]2(c3cc(C#CC4(O)CCCCCC4)ccc31)[C@H](c1ccc(O)cc1)N1[C@H](c3ccccc3)[C@H](c3ccccc3)OC(=O)[C@H]1[C@@H]2C(=O)NC[C@H](O)c1ccccc1	0.267
C[N+](C)(C)CCCC[C@@H]1NC(=O)[C@H]2C[C@@H](C(=O)NCCCCCCN)[C@@H](c3ccc(O)cc3)N2C1=O	-0.132
C=C(/C(=C/C[C@H](OC(=O)c1ccncc1)c1ccc(CO)o1)c1cc(C(=O)OC)ccc1OC)C(C)C	-0.154
COCCOC(=O)N1C(=O)[C@@]2(c3cc(C#CCCO)ccc31)[C@H](c1ccccc1OCCO)N1[C@H](c3ccccc3)[C@H](c3ccccc3)OC(=O)[C@H]1[C@@H]2C(=O)Nc1nc2ccccc2s1	1.03
CC(C)Cc1ccc(CN2CC[C@@H](NC(=O)Nc3ccccc3)C2)cc1	-5.14

Fill blank: measured z-score of the molecule `[N-]=[N+]=NCc1ccccc1C[C@]1(C(N)=O)N=C(c2ccc(OCCCO)cc2)O[C@H]1c1ccccc1` is ____. 1

Every entry's value here was drawn from PubChem BioAssay.
